Assay: qHTS assay to identify small molecule antagonists of the androgen receptor (AR) signaling pathway - cell viability counter screen (AID 743033; note: nearly all actives have a fitted effect of over 45% in size)
Conditions: AR-bla HEK293 viability, CellTiter-Glo luminescence, 16 h; series mostly up to 58.5 µM
Inconclusive results are not listed. Active and inactive are the calls of the source. Calls come from the whole dose curve; as a rule, active = well fitted cell-killing curve with a large enough effect in the repeat runs; inconclusive = weak or mixed curves; inactive = no such curve, though single readings can be large or run the other way.
Select the correct class. Options are active, inactive and nothing else.

Known results for molecules:
Nc1ccccc1-c1ccccc1    inactive
CC(=O)[O][Sn]([c]1ccccc1)([c]1ccccc1)[c]1ccccc1    active
C[N+]1(C)[C@@H]2CC[C@H]1CC(OC(=O)C(CO)c1ccccc1)C2 (stereo partly specified)    inactive
CC1CN1 (stereo unspecified)    inactive
O=C(Nc1ccc(F)cc1F)c1cccnc1Oc1cccc(C(F)(F)F)c1    inactive

Incoming: Hello, I am checking results. What call was entered for C=CCBr ?
Outgoing: inactive

Incoming: Same lookup for N#Cc1sc2c(=O)c3ccccc3c(=O)c=2sc1C#N , please.
Outgoing: active

Incoming: Same lookup for CCC(C)c1cccc(C(C)CC)c1O (stereo unspecified) , please.
Outgoing: inactive
